- Target Desc: AhR (Cavia porcellus)
- Test: Receptor capture assay, real-time PCR, rodent cytosol as source of AhR
- Format: biochemical
- Design: EC50 of dose-response curve; other: TCDD and BNF curves performed simultaneously; slope of dose-response curve
- Conditions Used: TCDD and BNF curves performed simultaneously; read-out: EC50 of dose-response curve
Quantity: EC50 (nM)
Lab book: enter the figure in nM, no units written.

Please report the recorded EC50 for O=c1cc(-c2ccccc2)oc2ccc3ccccc3c12 .
0.04
